Test system: E. coli TESEC Mtb Alr
Test: growth (OD600 after 10 h); higher = more growth (less inhibition)
Details: arabinose 1000 nM; compound 0.1 mM; raw OD600 reference: median of DMSO wells 0.294, cell-free background 0.041
Where a name gives a salt, the structure may show the parent alone.
Documented growth across a set of molecules
Response field accepts a number only; no unit should be typed.

Below, 5 molecules whose answers are already recorded.
[[record]]
molecule = "NCCc1c[nH]cn1 [Histamine dihydrochloride]"
assay_value = 0.295

[[record]]
molecule = "N=c1nc(N2CCCCC2)cc(N)n1O"
assay_value = 0.28

[[record]]
molecule = "CNCCC(Oc1ccccc1OC)c1ccccc1 (centres undefined) [Nisoxetine hydrochloride]"
assay_value = 0.258

[[record]]
molecule = "OCc1cc(C(O)CNCCCCCCOCCCCc2ccccc2)ccc1O (centres undefined)"
assay_value = 0.181

[[record]]
molecule = "CC(C)c1nc(CN(C)C(=O)N[C@H](C(=O)N[C@@H](Cc2ccccc2)C[C@H](O)[C@H](Cc2ccccc2)NC(=O)OCc2cncs2)C(C)C)cs1"
assay_value = 0.216


Q: Please give the measured growth for this molecule: c1ccc2c(c1)CCCC2C1=NCCN1 (centres undefined) [Tetrahydrozoline hydrochloride]
A: 0.297

Q: What about this molecule? C=CCN1CCCC1CNC(=O)c1cc2nn[nH]c2cc1OC (centres undefined) [Alizapride HCl]
A: 0.277

Q: What about this molecule? "COC(=O)N/N=C/c1c[n+]([O-])c2ccccc2[n+]1[O-]"
A: 0.23

Q: What about this molecule? "C#C[C@]1(O)CC[C@H]2[C@@H]3[C@H](C)CC4=C(CCC(=O)C4)[C@H]3CC[C@@]21C"
A: 0.162
